target: GluN2B glutamate receptors (Homo sapiens (Human), UniProt Q05586+Q13224); test: Whole-cell patch clamp of mammalian cells (Ionworks Barracuda), positive allosteric modulation, GluN2B; format: cell-based; conditions: % potentiation of current elicited with EC20 L-glutamate and 30 μM glycine; read-out: Avg Emax 2B (%)
Sequence (Q13224 27-1484, other chains not shown): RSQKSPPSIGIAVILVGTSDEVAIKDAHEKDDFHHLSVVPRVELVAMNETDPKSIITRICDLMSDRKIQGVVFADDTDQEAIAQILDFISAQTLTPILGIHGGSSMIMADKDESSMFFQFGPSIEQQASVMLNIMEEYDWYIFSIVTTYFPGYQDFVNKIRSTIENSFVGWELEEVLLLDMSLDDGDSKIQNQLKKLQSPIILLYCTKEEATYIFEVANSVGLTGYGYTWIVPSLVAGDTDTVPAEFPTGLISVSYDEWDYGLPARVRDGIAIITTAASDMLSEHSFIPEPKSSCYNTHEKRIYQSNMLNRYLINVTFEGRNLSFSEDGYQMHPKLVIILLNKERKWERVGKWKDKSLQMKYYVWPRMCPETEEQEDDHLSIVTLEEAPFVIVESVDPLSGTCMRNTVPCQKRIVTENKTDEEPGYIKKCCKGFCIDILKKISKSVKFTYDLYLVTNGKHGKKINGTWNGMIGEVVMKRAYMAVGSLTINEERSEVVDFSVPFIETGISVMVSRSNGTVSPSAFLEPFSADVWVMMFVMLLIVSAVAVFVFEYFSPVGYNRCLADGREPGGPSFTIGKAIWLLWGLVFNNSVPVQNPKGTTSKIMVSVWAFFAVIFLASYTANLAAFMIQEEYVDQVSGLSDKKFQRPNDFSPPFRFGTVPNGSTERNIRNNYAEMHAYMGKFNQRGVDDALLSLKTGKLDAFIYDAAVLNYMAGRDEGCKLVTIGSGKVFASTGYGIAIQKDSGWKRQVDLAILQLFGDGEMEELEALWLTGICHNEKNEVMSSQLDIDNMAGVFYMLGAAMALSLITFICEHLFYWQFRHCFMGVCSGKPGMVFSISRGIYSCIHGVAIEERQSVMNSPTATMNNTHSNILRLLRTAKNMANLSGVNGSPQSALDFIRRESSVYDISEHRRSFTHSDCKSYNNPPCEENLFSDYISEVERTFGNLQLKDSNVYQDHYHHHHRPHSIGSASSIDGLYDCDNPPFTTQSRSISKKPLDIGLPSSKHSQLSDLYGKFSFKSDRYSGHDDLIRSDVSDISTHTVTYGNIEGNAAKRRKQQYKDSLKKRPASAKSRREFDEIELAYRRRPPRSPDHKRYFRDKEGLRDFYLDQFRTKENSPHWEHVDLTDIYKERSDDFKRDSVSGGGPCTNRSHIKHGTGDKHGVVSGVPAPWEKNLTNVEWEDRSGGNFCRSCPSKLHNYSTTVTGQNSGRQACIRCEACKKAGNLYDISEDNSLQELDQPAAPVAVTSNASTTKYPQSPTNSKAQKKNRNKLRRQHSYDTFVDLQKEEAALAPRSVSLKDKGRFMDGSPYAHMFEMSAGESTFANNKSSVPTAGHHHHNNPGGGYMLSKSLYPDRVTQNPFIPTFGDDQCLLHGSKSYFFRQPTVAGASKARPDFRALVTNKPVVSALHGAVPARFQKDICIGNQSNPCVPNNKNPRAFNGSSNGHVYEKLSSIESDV
Recorded measurements of Emax, one per entry
Report the value in % with no unit label.

> print(dat)
                           molecular.string                       experimental.system  reported.endpoint  u  recorded.value
1  C[C@H](CC[C@H](O)C1CCCCC1)[C@H]1CC[C@H]2[C@@H]3CC[C@H]4C[C@](O)(C(F)(F)F)CC[C@]4(C)[C@H]3CC[C@]12C  GluN2B glutamate receptors (Homo sapiens (Human), UniProt Q05586+Q13224)               Emax  %             198
2  CC(C)[C@H](O)CC[C@@H](C)[C@H]1CC[C@H]2[C@@H]3CC[C@H]4C[C@@](C)(O)CC[C@@H]4[C@H]3CC[C@]12C  GluN2B glutamate receptors (Homo sapiens (Human), UniProt Q05586+Q13224)               Emax  %             233
3  C[C@H](CC[C@@H](O)C1CCC1)[C@H]1CC[C@H]2[C@@H]3CC[C@H]4C[C@](O)(C(F)(F)F)CC[C@]4(C)[C@H]3CC[C@]12C  GluN2B glutamate receptors (Homo sapiens (Human), UniProt Q05586+Q13224)               Emax  %             352

Emax recorded for this molecule, C[C@H](CCCC1(O)CCC(F)(F)CC1)[C@H]1CC[C@H]2[C@@H]3CC[C@H]4C[C@](O)(C(F)(F)F)CC[C@]4(C)[C@H]3CC[C@]12C , is 151

The molecule listed as CC[C@]1(O)CC[C@H]2C(=CC[C@@H]3[C@@H]2CC[C@]2(C)[C@@H]([C@H](C)CCC4(O)CC4)CC[C@@H]32)C1 shows Emax equal to 120

The molecule C[C@H](CCC1(O)CCC(C)(C)CC1)[C@H]1CC[C@H]2[C@@H]3CC[C@H]4C[C@](O)(C(F)(F)F)CC[C@]4(C)[C@H]3CC[C@]12C showed Emax equal to 20.4

Entry C[C@H](CCC(C)(C)O)[C@H]1CC[C@H]2[C@@H]3CC=C4C[C@](O)(C(F)(F)F)CC[C@]4(C)[C@H]3CC[C@]12C ; Emax = 568
